- system tested: recombinant BRD4 BD2 (Homo sapiens)
- Construct: for recombinant BRD4 BD1 and BRD4 BD2 proteins
- experimental details: Competitive fluorescence-polarization (FP) binding assay, BRD4 BD2; further: probe 1.5 nM
- experimental conditions: competitive FP assay; protein 6 nM, probe […]; read-out: IC50 (nM) BRD4 BD2
- Method: Fluorescence Polarization (FP) competitive binding studies were carried out using a FAM labeled fluorescent probe (ZBA248 or BRD-1F) to determine binding affinities of representative Compounds of the Disclosure for recombinant BRD4 BD1 and BRD4 BD2 proteins. […] Kd values of ZBA248 were calculated by fitting the sigmoidal dose-dependent FP increases as a function of protein concentrations using Graphpad Prism 6.0 software (Graphpad Software, San Diego, Calif.). […]

>  <test smiles>
COc1cc2c(cc1-c1c(C)noc1C)[nH]c1nc(C)nc(Nc3cccc4cccnc34)c12

>  <system tested>
recombinant BRD4 BD2 (Homo sapiens)

>  <readout relation>
>

>  <IC50 / nM>
1000

$$$$
>  <test smiles>
COc1cc2c(cc1-c1c(C)noc1C)[nH]c1nc(C)nc(Sc3ccccc3C(C)C)c12

>  <system tested>
recombinant BRD4 BD2 (Homo sapiens)

>  <readout relation>
>

>  <IC50 / nM>
1000

$$$$
>  <test smiles>
COc1cc2c(cc1-c1c(C)noc1C)[nH]c1nc(C)nc(Nc3nn(C)c4cc(F)ccc34)c12

>  <system tested>
recombinant BRD4 BD2 (Homo sapiens)

>  <readout relation>
=

>  <IC50 / nM>
174

$$$$
>  <test smiles>
COc1cc2c(cc1-c1c(C)noc1C)[nH]c1nc(C)nc(Nc3ccnc(C)c3)c12

>  <system tested>
recombinant BRD4 BD2 (Homo sapiens)

>  <readout relation>
=

>  <IC50 / nM>
79

$$$$

---

- System: VCaP prostate cancer cells
- experimental details: Cell growth inhibition, VCaP prostate cancer cells (Cell-Titer GLO)
- Format: cell-based
- experimental conditions: Homo sapiens, VCaP; 96 h incubation; read-out: IC50 (nM) VCaP Cell Line (CellTiter-Glo assay)
Reported IC50 values are given for each entry in this list.

>  <molecule>
COc1cc2c(cc1-c1c(C)noc1C)[nH]c1nc(C)nc(Nc3c(C)c(C)nn3C(C)(C)C)c12 [Cpd. No. 185]

>  <IC50 (nM)>
64.7

$$$$
>  <molecule>
COc1cc2c(cc1-c1c(C)noc1C)[nH]c1nc(C)nc(Nc3c4c(nn3C(C)C)CCC4)c12 [Cpd. No. 137]

>  <IC50 (nM)>
23.4

$$$$
>  <molecule>
CCn1nc2c(c1Nc1nc(C)nc3[nH]c4cc(-c5c(C)noc5C)c(OC)cc4c13)CCC2 [Cpd. No. 141]

>  <IC50 (nM)>
19.3

$$$$
>  <molecule>
CCn1nc(C2CC2)cc1Nc1nc(C)nc2[nH]c3cc(-c4c(C)noc4C)c(OC)cc3c12 [Cpd. No. 144]

>  <IC50 (nM)>
53.8

$$$$

---

- system tested: recombinant BRD4 BD1 (Homo sapiens, UniProt O60885)
- Construct: for recombinant BRD4 BD1 and BRD4 BD2 proteins
- experimental details: Competitive fluorescence-polarization (FP) binding assay, BRD4 BD1
- experimental conditions: FP competitive binding, BRD4 BD1; read-out: Binding affinities (FP) BRD4BD1 Ki
pKi: −log10 of the molar value.
value kind: pKi

>  <compound>
COc1cc2c([nH]c3nc(C)nc(Nc4cc(C5CC5)nn4C)c32)c(F)c1-c1c(C)noc1C [Cpd. No. 307]

>  <readout relation>
=

>  <readout number>
8.42

$$$$
>  <compound>
COc1cc2c(cc1-c1c(C)noc1C)[nH]c1nc(N)nc(Nc3c4c(nn3C(C)C)CCC4)c12 [Cpd. No. 292]

>  <readout relation>
>

>  <readout number>
9.00

$$$$
>  <compound>
COc1nc2c(cc1-c1c(C)noc1C)[nH]c1nc(C)nc(N(C)C3CCCC3)c12 [compound 321]

>  <readout relation>
=

>  <readout number>
6.77

$$$$
>  <compound>
COc1cc2c(cc1-c1c(C)noc1C)[nH]c1cncc(Nc3cc(C4CC4)nn3C)c12 [Cpd. No. 323]

>  <readout relation>
=

>  <readout number>
8.80

$$$$
>  <compound>
COc1cc2c(nc1-c1c(C)noc1C)[nH]c1nc(C)nc(Nc3cc(C4CC4)nn3C)c12 [Cpd. No. 304]

>  <readout relation>
=

>  <readout number>
7.82

$$$$
>  <compound>
COc1cc2c(cc1-c1c(C)noc1C)[nH]c1nc(N)nc(Nc3cc(C4CC4)nn3C3CC3)c12 [Cpd. No. 291]

>  <readout relation>
=

>  <readout number>
8.82

$$$$
>  <compound>
COc1cc2c([nH]c3ccnc(Nc4cc(C5CC5)nn4C)c32)c(F)c1-c1c(C)noc1C [Cpd. No. 309]

>  <readout relation>
=

>  <readout number>
8.39

$$$$
>  <compound>
COc1nc2c(cc1-c1c(C)noc1C)[nH]c1nc(C)nc(N(C)c3nn(C)c4ncccc34)c12 [compound 318]

>  <readout relation>
=

>  <readout number>
7.92

$$$$
>  <compound>
COc1cc2c(cc1-c1c(C)noc1C)[nH]c1nc(C)nc(Nc3cc(C4CC4)nn3CC3COCCO3)c12 (stereo not drawn) [Cpd. No. 282]

>  <readout relation>
=

>  <readout number>
8.89

$$$$
>  <compound>
COc1nc2c(cc1-c1c(C)noc1C)[nH]c1nc(C)nc(Nc3cc(C(C)(C)C)nn3C)c12 [compound 314]

>  <readout relation>
=

>  <readout number>
6.84

$$$$
>  <compound>
COCCOCc1nc(Nc2cc(C3CC3)nn2C)c2c(n1)[nH]c1cc(-c3c(C)noc3C)c(OC)cc12 [Cpd. No. 288]

>  <readout relation>
>

>  <readout number>
9.00

$$$$
>  <compound>
COc1nc2c(cc1-c1c(C)noc1C)[nH]c1nc(C)nc(Nc3cc(C4CC4)nn3C)c12 [compound 322]

>  <readout relation>
=

>  <readout number>
7.17

$$$$
>  <compound>
COc1nc2c(cc1-c1c(C)noc1C)[nH]c1nc(C)nc(N(C)c3c(C)cnn3C(C)C)c12 [compound 319]

>  <readout relation>
=

>  <readout number>
7.42

$$$$
>  <compound>
COc1cc2c(cc1-c1c(C)noc1C)[nH]c1nc(C)nc(Nc3cc(C4CC4)nn3C[C@H](O)CO)c12 [Cpd. No. 281]

>  <readout relation>
=

>  <readout number>
8.70

$$$$
>  <compound>
COc1cc2c(cc1-c1c(C)noc1C)[nH]c1nc(C)nc(Nc3cc(C4CC4)nn3CCN3CCOCC3)c12 [Cpd. No. 284]

>  <readout relation>
=

>  <readout number>
8.52

$$$$
